- Tested on: gel-filtered human platelets
- measurementNotes: Inhibition of ADP-stimulated platelet aggregation (IC50 Plaggin)
- Type: cell-based
- particulars: ADP-initiated (10 mM ADP) aggregation of gel-filtered human platelets, fibrinogen 100 ug/ml, Ca2+ 1 mM, 37° C.
pIC50: −log10 of the molar value.
observationType: pIC50

a. CCCCS(=O)(=O)N[C@@H](CNC(=O)C1CC1CC(=O)NCCC1CCNCC1)C(=O)O (stereo partly shown)
b. CCCCS(=O)(=O)N[C@@H](CNC(=O)[C@H]1C[C@@H]1C(=O)NCCC1CCNCC1)C(=O)O
INPUT: Input pair: a , b . Output: entry with lower pIC50. I would appreciate it if you answered with the label of your choice.
OUTPUT: b
(b: 6.24, a: 6.85)
